Exercise: for every item that follows, state its recorded % parent molecule remaining after 2 hours at 37° C..
Assay: Liver S9 Fraction Stability Assay
Conditions: human liver S9, With NADPH, 1 μM
Answers are plain numbers, in %.

CCCCCCCCCCCCOC(=O)O[C@H]1CCC2C3CCC4=CC(=O)CCC4=C3[C@@H](C)C[C@@]21C (stereo partly shown) : 75

Hi, could you look up % parent molecule remaining after 2 hours at 37° C. for each item in my list?
1. C#C[C@]1(OC(=O)OC(C)(C)C)CCC2C3CCC4=CC(=O)CCC4C3CC[C@@]21CC (stereo partly shown)
2. CCCCCCCCCCCCOC(=O)O[C@H]1CCC2C3CCC4=CC(=O)CC[C@]4(C)C3CC[C@@]21C (stereo partly shown) [CDB-4883, testosterone dodecylcarbonate]
3. C#C[C@]1(OC(=O)CCCCCCCCCCC)CCC2C3CCC4=CC(=O)CCC4C3CC[C@@]21CC (stereo partly shown)

OUTPUT:
1: 12; 2: 64; 3: 54

Recorded values, source patent US20230227492A1.
